# Tested on: Sigma 2 receptor
# ASSAY: Tested for [3H]DTG binding to sigma-2 receptor in NG108-15 cell membranes
MEASUREMENT LABEL: pKi
Expect pKi as a plain number equal to -log10 of the molar concentration.

// worked examples, pKi included
O=C(CCCN1CCN(c2ccccn2)CC1)c1ccc(F)cc1 ... 7.29
O[C@@H](CCCN1CCN(c2ccccn2)CC1)c1ccc(F)cc1 ... 7.42
O[C@@H](CCCN1CCN(c2ncc(F)cn2)CC1)c1ccc(F)cc1 ... 7.02
O[C@H](CCCN1CCN(c2ccccn2)CC1)c1ccc(F)cc1 ... 6.55

Provide pKi value for the following compound: "O[C@H](CCCN1CCN(c2ncc(F)cn2)CC1)c1ccc(F)cc1"
5.91

###

Measured pKi (UniProt:P35462)
Sequence (P35462 whole entry): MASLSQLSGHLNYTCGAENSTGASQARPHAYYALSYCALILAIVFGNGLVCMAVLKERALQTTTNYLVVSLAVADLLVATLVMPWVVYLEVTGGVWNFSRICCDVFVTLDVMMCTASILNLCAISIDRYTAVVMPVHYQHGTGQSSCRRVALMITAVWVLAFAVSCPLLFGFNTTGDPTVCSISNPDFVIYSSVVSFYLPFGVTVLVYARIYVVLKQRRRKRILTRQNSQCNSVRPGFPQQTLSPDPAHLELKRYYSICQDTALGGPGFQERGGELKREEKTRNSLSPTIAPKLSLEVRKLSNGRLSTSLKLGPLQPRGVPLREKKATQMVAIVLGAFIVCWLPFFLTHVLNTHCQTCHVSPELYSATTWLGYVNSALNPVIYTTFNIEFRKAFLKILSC
Expect pKi as a plain number equal to -log10 of the molar concentration.

O[C@H](CCCN1CCC(O)(c2ccc(Cl)cc2)CC1)c1ccc(F)cc1 ... 5.89

Retrieve pKi on UniProt:P35462; query "O[C@@H](CCCN1CCC(O)(c2ccc(Cl)cc2)CC1)c1ccc(F)cc1"
6.48

###

# TARGET SYSTEM: D(2) dopamine receptor (Homo sapiens, UniProt P14416)
# Sequence (P14416 whole entry): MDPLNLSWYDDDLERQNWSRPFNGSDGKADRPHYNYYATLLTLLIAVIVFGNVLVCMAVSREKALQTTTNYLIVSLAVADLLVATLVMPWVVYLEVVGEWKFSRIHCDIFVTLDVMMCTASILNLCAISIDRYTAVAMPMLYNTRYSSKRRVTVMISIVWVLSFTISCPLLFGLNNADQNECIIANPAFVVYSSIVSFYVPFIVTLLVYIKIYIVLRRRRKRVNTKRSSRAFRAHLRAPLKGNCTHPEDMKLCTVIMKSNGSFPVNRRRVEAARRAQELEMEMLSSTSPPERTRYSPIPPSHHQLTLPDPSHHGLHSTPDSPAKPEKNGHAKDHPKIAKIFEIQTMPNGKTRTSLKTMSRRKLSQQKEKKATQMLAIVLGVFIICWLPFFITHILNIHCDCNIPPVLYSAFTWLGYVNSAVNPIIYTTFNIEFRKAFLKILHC
MEASUREMENT LABEL: Ki (nM)
Give a bare numeral; the unit nM is implied.

Retrieve Ki on D(2) dopamine receptor (Homo sapiens, UniProt P14416); query "O[C@H](CCCN1CCN(c2ccccn2)CC1)c1ccc(F)cc1"
403
